measurement_target: T1, human BCMA (human, UniProt Q02223 1-54)
T1 construct: also called huBCMA; hBCMA
T1 sequence: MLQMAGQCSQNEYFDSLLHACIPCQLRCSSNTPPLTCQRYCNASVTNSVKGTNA
assay_comment: SPR, immobilised IgG, 37° C
Below: a set of entries, each annotated with reported T½.
readout_label: T½ (min)

binder: L3.PY/H2.QL (antibody, V domains shown, IgG in the assay) VH: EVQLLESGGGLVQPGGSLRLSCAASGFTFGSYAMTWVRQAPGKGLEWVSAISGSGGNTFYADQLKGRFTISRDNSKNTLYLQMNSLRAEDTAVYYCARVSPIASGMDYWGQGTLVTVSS VL: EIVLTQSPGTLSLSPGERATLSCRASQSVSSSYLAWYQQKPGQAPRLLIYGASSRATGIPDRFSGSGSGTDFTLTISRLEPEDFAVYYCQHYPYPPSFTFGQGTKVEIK
readout_label: T½
readout_value: 5.31
--
binder: L3.PY/L3.KY/H2.QR (antibody, V domains shown, IgG in the assay) VH: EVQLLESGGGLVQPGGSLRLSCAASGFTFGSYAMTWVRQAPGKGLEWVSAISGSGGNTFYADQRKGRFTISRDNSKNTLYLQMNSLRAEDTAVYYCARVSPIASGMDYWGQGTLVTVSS VL: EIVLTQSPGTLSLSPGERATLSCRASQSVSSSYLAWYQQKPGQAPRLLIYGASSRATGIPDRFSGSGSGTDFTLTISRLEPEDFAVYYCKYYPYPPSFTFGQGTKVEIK
readout_label: T½
readout_value: 11.7
--
binder: L3.PY/H3.AQ (antibody, V domains shown, IgG in the assay) VH: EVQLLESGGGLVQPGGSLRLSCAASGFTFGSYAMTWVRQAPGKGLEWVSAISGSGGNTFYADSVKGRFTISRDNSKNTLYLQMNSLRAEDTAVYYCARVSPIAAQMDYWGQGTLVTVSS VL: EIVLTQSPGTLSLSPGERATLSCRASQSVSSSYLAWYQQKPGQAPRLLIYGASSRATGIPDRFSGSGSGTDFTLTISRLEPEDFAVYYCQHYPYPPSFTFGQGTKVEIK
readout_label: T½
readout_value: 6.69
